system.under.test: Carbon monoxide dehydrogenase (CODH) (Afipia carboxidovorans, UniProt P19920)
Sequence (P19920 1-288): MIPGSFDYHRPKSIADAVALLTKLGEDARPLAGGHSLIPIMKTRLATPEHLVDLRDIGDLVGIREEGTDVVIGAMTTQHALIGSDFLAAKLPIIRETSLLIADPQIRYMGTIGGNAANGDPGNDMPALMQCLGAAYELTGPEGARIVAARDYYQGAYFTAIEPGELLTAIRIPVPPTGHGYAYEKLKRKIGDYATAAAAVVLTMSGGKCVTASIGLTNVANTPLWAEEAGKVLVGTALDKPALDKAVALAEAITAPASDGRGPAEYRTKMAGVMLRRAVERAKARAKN
Sequence (P19919 1-809 partner): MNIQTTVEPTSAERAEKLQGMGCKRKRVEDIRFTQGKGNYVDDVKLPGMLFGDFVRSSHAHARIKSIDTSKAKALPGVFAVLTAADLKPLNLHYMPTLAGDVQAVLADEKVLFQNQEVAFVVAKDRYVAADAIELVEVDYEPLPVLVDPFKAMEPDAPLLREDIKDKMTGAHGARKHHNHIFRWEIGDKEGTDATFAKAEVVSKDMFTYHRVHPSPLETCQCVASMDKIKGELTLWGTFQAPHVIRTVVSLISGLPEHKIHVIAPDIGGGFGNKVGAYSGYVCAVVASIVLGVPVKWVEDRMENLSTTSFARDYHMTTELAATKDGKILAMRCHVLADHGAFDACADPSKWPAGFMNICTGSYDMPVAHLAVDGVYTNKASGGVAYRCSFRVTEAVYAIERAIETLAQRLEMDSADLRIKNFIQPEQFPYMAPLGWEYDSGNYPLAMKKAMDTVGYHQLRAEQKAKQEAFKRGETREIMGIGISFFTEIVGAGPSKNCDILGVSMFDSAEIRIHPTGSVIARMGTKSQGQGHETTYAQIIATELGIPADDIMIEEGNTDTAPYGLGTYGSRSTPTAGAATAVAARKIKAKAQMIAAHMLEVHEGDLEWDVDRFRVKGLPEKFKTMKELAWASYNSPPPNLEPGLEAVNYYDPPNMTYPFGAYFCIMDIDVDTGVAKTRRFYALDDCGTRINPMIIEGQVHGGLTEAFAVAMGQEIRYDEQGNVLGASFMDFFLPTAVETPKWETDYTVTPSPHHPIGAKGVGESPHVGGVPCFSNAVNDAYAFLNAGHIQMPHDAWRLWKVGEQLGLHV
Sequence (P19921 1-166 partner): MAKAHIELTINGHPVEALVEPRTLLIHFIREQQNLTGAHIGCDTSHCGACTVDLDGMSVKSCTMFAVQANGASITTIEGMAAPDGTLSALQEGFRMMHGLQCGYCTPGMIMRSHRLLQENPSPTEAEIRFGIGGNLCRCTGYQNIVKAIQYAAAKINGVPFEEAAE
metric: Kd (µM)
Give the number; µM is assumed, so skip it.

Incoming: Which Kd is reported for this compound? `O=C1C=CC(=O)C=C1`
Outgoing: 100

These measurements were taken from paper PMC3076215.
